Cited source: the supplement of paper PMC10724198

Could you please report measured protein stability index for the items listed next?
Test system: Saccharomyces cerevisiae;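 note: PSI is a weighted mean of sequencing reads over stability bins, variants kept only with over 10 reads, mCherry proximal and sfGFP distal, peptide attached via GGGS linker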
Test: protein stability index of tFT-peptide fusion (C-terminal peptide) (PSI (0-1 scale)); higher = more stable (slower turnover)
Conditions: genetic background: wild type; temperature: 30 C
Give bare numbers.

Sample answers from the record:
{"columns": ["primary.sequence", "tested.on", "protein stability index"],
 "data": [
  ["GQSRLVADLRQV", "Saccharomyces cerevisiae", 0.715],
  ["RNQQQENNKQSK", "Saccharomyces cerevisiae", 0.694],
  ["FFVRGCLCLSDR", "Saccharomyces cerevisiae", 0.693],
  ["GLRSKLEKVQRG", "Saccharomyces cerevisiae", 0.726],
  ["RKEQRTERKSQK", "Saccharomyces cerevisiae", 0.721]
]}

Below is a list of sequences. For each, state its recorded protein stability index.
1. HLSPPPLMPPCC
2. FYSPSAPSPFFL
3. PPDPRLPRHDRP
4. HPQPIPVGGLSF
5. VLIRRLPFTSYL

Result:
0.759
0.797
0.755
0.696
0.637
